biological target: Kv1.4 (Homo sapiens); format: cell-based; conditions: highest concentrations tested
Sequence (P22459 whole entry): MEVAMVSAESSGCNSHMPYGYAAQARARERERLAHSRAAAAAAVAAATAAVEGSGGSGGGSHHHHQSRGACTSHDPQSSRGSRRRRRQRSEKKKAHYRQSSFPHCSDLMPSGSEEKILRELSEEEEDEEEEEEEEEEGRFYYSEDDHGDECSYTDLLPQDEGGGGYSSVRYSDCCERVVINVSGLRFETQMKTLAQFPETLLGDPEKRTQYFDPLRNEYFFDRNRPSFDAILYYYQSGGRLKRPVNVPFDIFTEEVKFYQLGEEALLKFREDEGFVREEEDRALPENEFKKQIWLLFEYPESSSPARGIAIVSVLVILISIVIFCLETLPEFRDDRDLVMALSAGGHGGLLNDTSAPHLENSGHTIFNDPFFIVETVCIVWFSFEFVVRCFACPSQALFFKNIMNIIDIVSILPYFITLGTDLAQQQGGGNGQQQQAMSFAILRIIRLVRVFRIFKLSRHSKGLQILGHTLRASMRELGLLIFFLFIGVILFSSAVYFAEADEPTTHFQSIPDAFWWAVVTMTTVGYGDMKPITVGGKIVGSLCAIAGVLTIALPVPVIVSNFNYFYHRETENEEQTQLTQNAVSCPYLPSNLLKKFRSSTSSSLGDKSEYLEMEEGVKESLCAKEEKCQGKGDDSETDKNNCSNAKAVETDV
measurement_kind: Kv1.4 / Kv channel inhibition (in words)

>>> result("NCCc1c(SSc2[nH]c3cc(Br)ccc3c2CCN)[nH]c2cc(Br)ccc12 [1a, 6-bromo-2-mercaptotryptamine dimer]")
"strongly inhibit"
>>> result("NCCc1c(COCc2[nH]c3cc(Br)ccc3c2CCN)[nH]c2cc(Br)ccc12 [compound 14]")
"strongly inhibit"
>>> result("NCCc1c(SSc2[nH]c3ccc(Br)cc3c2CCN)[nH]c2ccc(Br)cc12 [compound 8]")
"strongly inhibit"
>>> result("Cc1ccc2c(CCN)c(SSc3[nH]c4cc(C)ccc4c3CCN)[nH]c2c1 [compound 7]")
"strongly inhibit"
